Source listed as PubChem BioAssay.

Field: inhibition. Provide a value for each of the compounds that follow.
# assay-name: blockers of RIG-like receptor reporter activation – cell-based, Sendai virus stimulus, luciferase, 10K MLSCN set, TLR/RLR signaling modifier project, primary screen (AID 602276);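 also: firefly luciferase from ISG56 promoter only with Renilla not read in this screen; 0% = Sendai virus plus DMSO and 100% = medium plus DMSO without virus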
# experimental-conditions: HEK293 RL24 IRF3 luciferase reporter, at 10 µM, stronger effect = higher value
Numbers only, in %.

Known inhibition results, listed for orientation:
1. CCOC(=O)N1CCN(C(=O)CN(c2ccc(C)cc2)S(=O)(=O)c2c(C)noc2C)CC1	18.5
2. Cn1c(SCc2nc3ccccc3c(=O)[nH]2)nnc1-c1ccco1	-0.0213
3. CCCCn1c2c(c3ccccc31)CCc1nonc1-2	-16.3
4. CCCCSc1nc2c(cnn2-c2ccc(F)cc2)c(=O)[nH]1	4.85
5. COCCCN(C)C1CCN(C(=O)Nc2ccc(F)cc2)CC1	11
6. O=S(=O)(c1ccc2nc(Cc3cccc(C(F)(F)F)c3)[nH]c2c1)N1CCOCC1	11.9
7. COc1ccc2c(c1)C(C)=CC(C)(C)N2C(=O)CSc1nnc(-c2ccc(C)cc2)o1	-7.74
8. COc1cc(C2c3c(oc4ccccc4c3=O)C(=O)N2c2ccc(C)cn2)ccc1O (stereo unspecified)	-5.41

For the 3 compounds below, give their inhibition values.
1. COc1ccc(OCCCC(=O)Nc2nncs2)cc1
2. CC(C)CCNC(=O)NC(=O)COc1ccccc1C#N
3. Cc1nnc(SCCn2c(Br)nc3c2c(=O)n(C)c(=O)n3C)s1

Key:
-0.71
-47.7
-7.02

---

# assay-name: TLR3 IRF3 reporter activation blockers – cell-based, poly I:C stimulus, luciferase, 10K MLSCN set, primary screen (AID 602277)
# experimental-conditions: HEK293-TLR3 RL24 IRF3 luciferase reporter, at 10 µM, stronger effect = higher value
Would you mind sorting the entries by inhibition according to these classes? Low = under 10%, Mid = from 10% up to 20%, High = 20% and over

Solved cases (2 shown):
1. COc1cccc(-c2nnc(NC(=O)c3ccccc3Br)o2)c1	Mid
2. Cc1cc(=O)oc2c1ccc1oc(/C(=N/O)c3ccccc3)c(C)c12	Mid

Consider now this further compound.
Exercise: Quick check: band for CCOc1ccc(OCC)c(NC(=O)C2CCN(c3ncccn3)CC2)c1
Key: Mid

---

# assay-name: endothelial E-selectin expression blockers – imaging, HUVEC, immunofluorescence, MLSMR starter and 10KST1 sets, primary screen (AID 487);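 also: 100% = median nuclei count of all wells on the same plate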
# experimental-conditions: HUVEC TNFalpha-induced E-selectin immunofluorescence imaging, at 2 µM; measured here: cell number, toxicity
Field: nuclei count. Provide a value for each of the compounds that follow.
Quote the value and follow it with the unit of measurement.

Known nuclei count results, listed for orientation:
1) Cc1ccc(-c2nnn(CC(=O)N(Cc3cccs3)C(C(=O)NC(C)(C)C)c3ccc(C)o3)n2)o1 (stereo not given)	137%
2) O=C(Cn1cnc2c(nnn2Cc2ccc(Cl)cc2)c1=O)NCC1CCCO1 (stereo not given)	132%
3) COc1ccc2[nH]c(=O)c(CNC3CCCCC3)cc2c1	90.1%

For the 4 compounds below, give their nuclei count values.
1. CCC(=O)Nc1c2c(nn1-c1ccccc1C)CSC2
2. Cc1ccc(S(=O)(=O)N2CCN(S(C)(=O)=O)C2c2ccccc2)cc1 (stereo not given)
3. CCOc1ccc(N(CC(=O)NCc2cccc(OC)c2)S(=O)(=O)c2c(C)noc2C)cc1
4. COc1ccc(C2CC(c3ccccc3)Nc3nc(NC(=O)c4cccs4)nn32)cc1 (stereo not given)

Key:
1: 99.7%; 2: 114%; 3: 104%; 4: 112%

For the 3 compounds below, give their nuclei count values.
1. CCOc1ccc(S(=O)(=O)N2CCN(C(=O)c3cccn3C)CC2)cc1
2. COc1ccc(C2C(C#N)=C(N)OC3=C2C(=O)CC(C)C3)c(OC)c1OC (stereo not given)
3. O=C(c1cc2n(n1)C(C(F)(F)F)CC(c1ccc(Cl)cc1)N2)N1CCCC1 (stereo not given)

Key:
1. 105%
2. 102%
3. 102%

---

# assay-name: blockers of RIG-like receptor reporter activation – cell-based, Sendai virus stimulus, luciferase, 10K MLSCN set, TLR/RLR signaling modifier project, primary screen (AID 602276);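 also: firefly luciferase from ISG56 promoter only with Renilla not read in this screen; 0% = Sendai virus plus DMSO and 100% = medium plus DMSO without virus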
# experimental-conditions: HEK293 RL24 IRF3 luciferase reporter, at 10 µM, stronger effect = higher value
Field: inhibition. Provide a value for each of the molecules that follow.
Answers are plain numbers, in %.

Known inhibition results, listed for orientation:
1) COC(=O)c1cc(Br)c(=O)n(-c2ccc(OC)cc2)c1	12.6
2) N#C/C(=C(/O)COC(=O)CCC1CCCCC1)c1nc2ccccc2[nH]1	16.8
3) COc1ccc(C(=O)N2CCN(S(=O)(=O)c3cc(Cl)ccc3OC)CC2)cc1	16.1
4) CCc1ccc(N2CC(C(=O)OCC(=O)Nc3cc(C)on3)CC2=O)cc1 (stereo not drawn)	5.09
5) Oc1cc(NCc2cccnc2)ccc1-c1nc2ccccc2o1	-31.3
6) CCOc1ccc(C2C(C#N)=C(N)Oc3cc(C)n(CCN(C)C)c(=O)c32)cc1OCC (stereo not drawn)	14.3

For the 2 molecules below, give their inhibition values.
1. COC(=O)Cn1c(CN2CCN(c3ccccc3F)CC2)nc2c1c(=O)n(C)c(=O)n2C
2. CCOC(=O)CN1CC23C=CC(O2)C(C(=O)Nc2ccc(C(C)=O)cc2)C3C1=O (stereo not drawn)

Key:
1: 7.96; 2: -3.34

---

# assay-name: endothelial E-selectin expression blockers – imaging, HUVEC, immunofluorescence, MLSMR starter and 10KST1 sets, primary screen (AID 487);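 also: 100% = median nuclei count of all wells on the same plate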
# experimental-conditions: HUVEC TNFalpha-induced E-selectin immunofluorescence imaging, at 2 µM; measured here: cell number, toxicity
Field: nuclei count. Provide a value for each of the compounds that follow.
One number for each entry, in %.

Known nuclei count results, listed for orientation:
1. CN(C)c1nc(SCCOC(=O)c2ccccc2)nc(N(C)C)n1	102
2. COc1cccc(NC(=O)c2nc3nc(C)cc(C(F)F)n3n2)c1	96.6
3. COCCn1c(COc2ccc(Cl)cc2)nnc1SCC(N)=O	119

For the 2 compounds below, give their nuclei count values.
1. O=C(CN1CCN(Cc2ccccc2)CC1)Nc1ccc(Cl)cn1
2. CC1=C(C(=O)Nc2ccccc2)C(c2cccs2)C(C#N)=C(SCC#N)N1 (stereo unspecified)

Key:
1: 92; 2: 99.1

For the 2 compounds below, give their nuclei count values.
1. C=CCn1c(=O)c(C(=O)Nc2ccccc2C(=O)OCC)c(O)c2ccccc21
2. COc1ccc(-c2nc(C#N)c(NCCCN(C)C)o2)cc1OC

Key:
[122, 98.4]

For the 4 compounds below, give their nuclei count values.
1. Cc1cc(C(N)=O)c2cc(Br)ccc2n1
2. Cc1cccc(NC2SC(=O)N(c3ccccc3)C2=O)c1 (stereo unspecified)
3. CC1CCCCC1NC(=O)CCCc1nc2ccccc2c(=O)[nH]1 (stereo unspecified)
4. CCOc1ccccc1N(C(=O)Cn1nnnc1-c1ccc(C)o1)C(CC)C(=O)NC(C)(C)C (stereo unspecified)

Key:
120
80.9
79.6
89.5

---

Field: inhibition of aggregation. Provide a value for each of the compounds that follow.
# assay-name: reduction of polyQ htt aggregates in cells – imaging, exon1htt(103Q)mCFP cells, high-content imaging, primary screen (AID 483);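 also: compound exposure lasted 3 days before fixation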
# experimental-conditions: exon1htt(103Q)mCFP cell line, aggregate imaging, at 2 µM; stronger effect = higher value
One number for each entry, in %.

1) CC(C)(C)n1nnnc1CN1CCC(NC(=O)NC2CCCCC2)CC1	10.8
2) NC(=O)CN1C(=O)C(O)(CC(=O)c2ccccc2O)c2ccccc21 (stereo not drawn)	-4.7
3) Cc1c(NC(=O)CSc2nnc3sc4ccccc4n23)c(=O)n(-c2ccccc2)n1C	16.2
4) COc1ccc(OC)c(S(=O)(=O)N2c3ccccc3CC2C)c1 (stereo not drawn)	4.4
5) CCc1ccc(NC(=O)c2cccnc2)cc1	23.7
6) Cc1csc(NC(=O)c2ccoc2C)n1	-7.1
7) Cc1cc(C(=O)NCCCN2CCOCC2)n(-c2ccccc2)n1	-11.9
8) Cc1nc2ccccc2c(=O)n1CC(=O)N1CCOCC1	11.6

For the 5 compounds below, give their inhibition of aggregation values.
1. CCOC(=O)N1CCN(c2c(N3CCN(c4ccccn4)CC3)c(=O)c2=O)CC1
2. O=c1[nH]c2ccc(Br)cc2c(-c2ccccc2)c1N1CCOCC1
3. COc1ccccc1NC(=O)c1ccc(COc2ccccc2OC)o1
4. Cc1cc(Nc2ccc(N3CCC(C)CC3)cc2)n2ncnc2n1
5. COc1ccc(S(=O)(=O)NCC(c2cccnc2)N2CCN(c3ccc(F)cc3)CC2)cc1C (stereo not drawn)

Key:
25.3
-1.1
-20
6
-4.9

For the 2 compounds below, give their inhibition of aggregation values.
1. Cc1ccc(Br)cc1S(=O)(=O)N1CCN(c2ccccc2)CC1
2. O=C(NCCCN1CCCC1=O)c1ccc2c(c1)NC(=O)C(N1CCOCC1)S2 (stereo not drawn)

Key:
-16
-20.6

For the 2 compounds below, give their inhibition of aggregation values.
1. COC(=O)C(CC(C)C)NC(=O)CSc1nc(-c2ccccc2)c(C#N)c(=O)[nH]1 (stereo not drawn)
2. Cc1ccc2nc(-c3ccc4c(c3)OCCO4)cc(C(=O)O)c2c1

Key:
1: -13; 2: -4.5

For the 6 compounds below, give their inhibition of aggregation values.
1. CC(=O)c1c(C)[nH]c(C(=O)N2CCN(C(=O)c3ccco3)CC2)c1C
2. CC(C)OC(=O)c1ccc(NC(=O)C2C3CC4OC(=O)C2C4C3)cc1 (stereo not drawn)
3. O=C(C1CCCN(S(=O)(=O)c2cnc[nH]2)C1)N1CC(=O)N(CCc2ccccc2)C(=O)C1 (stereo not drawn)
4. COC(=O)C1=C(CSCc2ccco2)NC(=O)NC1c1cc(C)ccc1C (stereo not drawn)
5. CCOC(=O)CNC(=O)CSc1nnnn1-c1cc(C)ccc1C
6. CCN(CC)S(=O)(=O)c1ccc2oc(SCc3ccc(F)cc3)nc2c1

Key:
1. 9.5
2. -9.4
3. -13.8
4. -15.1
5. 14.6
6. 6.8
